Target: T1, Human TROP2 ECD (31-274 AA), biotinylated (human, UniProt P09758 31-274, biotinylated (site not stated))
T1 construct: also called tumor-associated calcium signal transducer 2; Human TROP2-biotin
T1 sequence: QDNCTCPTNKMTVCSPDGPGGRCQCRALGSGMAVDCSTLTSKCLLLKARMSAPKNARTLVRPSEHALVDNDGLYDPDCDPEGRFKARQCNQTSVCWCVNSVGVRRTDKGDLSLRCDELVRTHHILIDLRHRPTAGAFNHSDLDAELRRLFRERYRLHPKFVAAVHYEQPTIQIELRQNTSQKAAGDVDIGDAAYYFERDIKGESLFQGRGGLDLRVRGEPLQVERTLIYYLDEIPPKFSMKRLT
Assay: BLI (Octet), biotinylated human TROP2 ECD on SAX sensor, Fab 6.25-50 nM
pKd by entry:
In simple prose, pKd is minus the logarithm base ten of a concentration in moles per litre.

{"columns": ["binder", "endpointValue"],
 "data": [
  ["TBD-16 (anti-TROP2 Fab, HC S103A) (Fab, V domains shown) VH: QVQLQQSGSELKKPGASVKVSCKASGYTFTNYGMNWVKQAPGQGLKWMGWINTYTGEPTYTDDFKGRFAFSLDTSVSTAYLQISSLKADDTAVYFCARGGFGASYWYFDVWGQGSLVTVSS VL: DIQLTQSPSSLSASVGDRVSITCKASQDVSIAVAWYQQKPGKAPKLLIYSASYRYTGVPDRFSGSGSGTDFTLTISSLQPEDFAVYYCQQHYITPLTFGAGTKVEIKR", 9.68],
  ["TBD-14 (anti-TROP2 Fab, HC F101A) (Fab, V domains shown) VH: QVQLQQSGSELKKPGASVKVSCKASGYTFTNYGMNWVKQAPGQGLKWMGWINTYTGEPTYTDDFKGRFAFSLDTSVSTAYLQISSLKADDTAVYFCARGGAGSSYWYFDVWGQGSLVTVSS VL: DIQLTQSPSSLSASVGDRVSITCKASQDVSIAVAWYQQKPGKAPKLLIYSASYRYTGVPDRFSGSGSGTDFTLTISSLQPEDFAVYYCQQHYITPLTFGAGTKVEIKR", 7.73]
]}

Kindly review the next binder as well.
For reference, reported pKd for TBD-15 (anti-TROP2 Fab, HC G102A) (Fab, V domains shown) VH: QVQLQQSGSELKKPGASVKVSCKASGYTFTNYGMNWVKQAPGQGLKWMGWINTYTGEPTYTDDFKGRFAFSLDTSVSTAYLQISSLKADDTAVYFCARGGFASSYWYFDVWGQGSLVTVSS VL: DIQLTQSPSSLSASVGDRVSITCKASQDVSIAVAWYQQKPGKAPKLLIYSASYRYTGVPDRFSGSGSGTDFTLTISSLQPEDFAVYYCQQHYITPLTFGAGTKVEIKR stands at 8.24

Values compiled from patent US20230357429A1.
